measured-quantity: IC50 (nM)
Quick note: give the figure in nM, leave out the unit.

The reported IC50 value, TEC (Homo sapiens, UniProt P42680), for C=CC(=O)N1CCC([C@@H]2CCNc3c(C(N)=O)c(-c4ccc(Oc5ccccc5)cc4)nn32)CC1 [Crystalline Form A] reads 1.9
